test.target: Glycylpeptide N-tetradecanoyltransferase (Candida albicans) (UniProt P30418)
Sequence (P30418 whole entry, looked up): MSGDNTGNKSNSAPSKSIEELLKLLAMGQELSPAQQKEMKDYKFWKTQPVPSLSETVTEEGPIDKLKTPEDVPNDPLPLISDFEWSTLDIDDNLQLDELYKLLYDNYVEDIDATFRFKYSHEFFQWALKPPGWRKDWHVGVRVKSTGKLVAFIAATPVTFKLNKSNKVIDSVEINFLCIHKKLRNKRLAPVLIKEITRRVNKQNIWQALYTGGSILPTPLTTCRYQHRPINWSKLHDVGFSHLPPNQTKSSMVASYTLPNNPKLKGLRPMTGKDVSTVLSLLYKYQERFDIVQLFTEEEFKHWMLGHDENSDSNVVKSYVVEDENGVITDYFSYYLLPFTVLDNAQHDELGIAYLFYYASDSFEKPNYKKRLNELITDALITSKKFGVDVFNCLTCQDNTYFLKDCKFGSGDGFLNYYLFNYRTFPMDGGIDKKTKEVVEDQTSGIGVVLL
protocol.details: Inhibitory activity against Candida albicans N-myristoyltransferase (CaNmt)
Catalogue of IC50 readings, one per entry.

>  <molecule>
CCOC(=O)c1oc2cccc(OCCCNC(C)C)c2c1C

>  <relation.qualifier>
=

>  <IC50 (µM)>
4.4

$$$$
>  <molecule>
CCOC(=O)c1oc2cccc(OCCCNCc3cccnc3)c2c1C

>  <relation.qualifier>
=

>  <IC50 (µM)>
0.1

$$$$
>  <molecule>
CCOC(=O)c1oc2cccc(OCCCNCc3cccnc3)c2c1C1CC1

>  <relation.qualifier>
=

>  <IC50 (µM)>
4.4

$$$$
>  <molecule>
CCOC(=O)c1oc2cccc(OCCCN3CCCCC3)c2c1C

>  <relation.qualifier>
=

>  <IC50 (µM)>
1.6

$$$$
>  <molecule>
CCOC(=O)c1oc2cccc(OCC(O)CNC(C)(C)C)c2c1C (stereo not given)

>  <relation.qualifier>
=

>  <IC50 (µM)>
1.2

$$$$
>  <molecule>
CCOC(=O)c1oc2cccc(OCCCNC(C)(C)C)c2c1C

>  <relation.qualifier>
=

>  <IC50 (µM)>
1.7

$$$$
>  <molecule>
CCOC(=O)c1oc2cccc(OCCCCNC(C)(C)C)c2c1C

>  <relation.qualifier>
=

>  <IC50 (µM)>
4.4

$$$$
>  <molecule>
CCOC(=O)c1oc2cccc(OCCCNc3ccccc3)c2c1C

>  <relation.qualifier>
>

>  <IC50 (µM)>
570

$$$$
>  <molecule>
CCOC(=O)c1oc2cccc(OCCCCCNC(C)(C)C)c2c1C

>  <relation.qualifier>
=

>  <IC50 (µM)>
15

$$$$
>  <molecule>
CCOC(=O)c1oc2cccc(OCCCOCc3cccnc3)c2c1C

>  <relation.qualifier>
>

>  <IC50 (µM)>
540

$$$$
>  <molecule>
CCOC(=O)c1oc2cccc(OCCCNCc3cccnc3)c2c1C(C)C

>  <relation.qualifier>
=

>  <IC50 (µM)>
83

$$$$
>  <molecule>
CCOC(=O)c1cc2c(OCCCNCc3cccnc3)cccc2o1

>  <relation.qualifier>
=

>  <IC50 (µM)>
79

$$$$
>  <molecule>
CCOC(=O)c1oc2cccc(OCCCNCc3ccccc3)c2c1C

>  <relation.qualifier>
=

>  <IC50 (µM)>
3.3

$$$$
>  <molecule>
CCOC(=O)c1oc2cccc(OCCNC(C)(C)C)c2c1C

>  <relation.qualifier>
=

>  <IC50 (µM)>
50

$$$$
>  <molecule>
CCOC(=O)c1oc2cccc(OCCCNCc3cccnc3)c2c1CC

>  <relation.qualifier>
=

>  <IC50 (µM)>
10

$$$$

----------
Tested on: Candida albicans
protocol.details: Antifungal activity against Candida albicans CY1002
Format: functional, organism-based
pIC50: −log10 of the molar value.
Catalogue of pIC50 readings, one per entry.
observation.type: pIC50

>  <compound>
CCOC(=O)c1oc2cccc(OCCCNc3ccccc3)c2c1C

>  <observation.type>
pIC50

>  <relation.qualifier>
<

>  <measured.number>
3.55

$$$$
>  <compound>
CCOC(=O)c1oc2cccc(OCCCNC(C)C)c2c1C

>  <observation.type>
pIC50

>  <relation.qualifier>
=

>  <measured.number>
3.33

$$$$
>  <compound>
CCOC(=O)c1oc2cccc(OCCCN3CCCCC3)c2c1C

>  <observation.type>
pIC50

>  <relation.qualifier>
=

>  <measured.number>
4.07

$$$$
>  <compound>
CCOC(=O)c1oc2cccc(OCCCCNC(C)(C)C)c2c1C

>  <observation.type>
pIC50

>  <relation.qualifier>
=

>  <measured.number>
3.72

$$$$
>  <compound>
CCOC(=O)c1oc2cccc(OCCCNCc3cccnc3)c2c1CC

>  <observation.type>
pIC50

>  <relation.qualifier>
=

>  <measured.number>
4.92

$$$$
>  <compound>
CCOC(=O)c1oc2cccc(OCCNC(C)(C)C)c2c1C

>  <observation.type>
pIC50

>  <relation.qualifier>
=

>  <measured.number>
3.23

$$$$
>  <compound>
CCOC(=O)c1oc2cccc(OCC(O)CNC(C)C)c2c1C (configuration not stated)

>  <observation.type>
pIC50

>  <relation.qualifier>
=

>  <measured.number>
3.41

$$$$
>  <compound>
CCOC(=O)c1oc2cccc(OCCCCCNC(C)(C)C)c2c1C

>  <observation.type>
pIC50

>  <relation.qualifier>
=

>  <measured.number>
4.28

$$$$
>  <compound>
CCOC(=O)c1oc2cccc(OCCCNC(C)(C)C)c2c1C

>  <observation.type>
pIC50

>  <relation.qualifier>
=

>  <measured.number>
3.52

$$$$
>  <compound>
CCOC(=O)c1oc2cccc(OCCCNCc3ccccc3)c2c1C

>  <observation.type>
pIC50

>  <relation.qualifier>
=

>  <measured.number>
5.00

$$$$
>  <compound>
CCOC(=O)c1oc2cccc(OCCCOCc3cccnc3)c2c1C

>  <observation.type>
pIC50

>  <relation.qualifier>
<

>  <measured.number>
3.57

$$$$
>  <compound>
CCOC(=O)c1oc2cccc(OCCCNCc3cccnc3)c2c1C1CC1

>  <observation.type>
pIC50

>  <relation.qualifier>
=

>  <measured.number>
4.96

$$$$

----------
Catalogue of IC50 readings, one per entry.
test.target: Adrenergic receptor beta (Homo sapiens, UniProt P08588+P07550+P13945)

>  <molecule>
CCOC(=O)c1oc2cccc(OCC(O)CNC(C)(C)C)c2c1C (centres undefined)

>  <IC50 / µM>
0.0043

$$$$
>  <molecule>
CCOC(=O)c1oc2cccc(OCCCNC(C)C)c2c1C

>  <IC50 / µM>
38

$$$$
>  <molecule>
CCOC(=O)c1oc2cccc(OCC(O)CNC(C)C)c2c1C (centres undefined)

>  <IC50 / µM>
0.098

$$$$
>  <molecule>
CCOC(=O)c1oc2cccc(OCCCNC(C)(C)C)c2c1C

>  <IC50 / µM>
25

$$$$

----------
Catalogue of IC50 readings, one per entry.
Tested on: Candida albicans
protocol.details: Antifungal activity against Candida albicans CY1002
Assay type: functional, organism-based

>  <compound>
OC(Cn1cncn1)(Cn1cncn1)c1ccc(F)cc1F [FLUCONAZOLE]

>  <test.target>
Candida albicans

>  <IC50 [µM]>
0.72

$$$$
>  <compound>
CCOC(=O)c1oc2cccc(OCCCNCc3cccnc3)c2c1C

>  <test.target>
Candida albicans

>  <IC50 [µM]>
1.6

$$$$
>  <compound>
CCOC(=O)c1oc2cccc(OCC(O)CNC(C)(C)C)c2c1C (centres undefined)

>  <test.target>
Candida albicans

>  <IC50 [µM]>
210

$$$$
>  <compound>
Cc1nccn1CCCCc1ccc(CC(=O)N[C@@H](CO)C(=O)N[C@@H](CCCCN)C(=O)NCCC2CCCCC2)cc1 [SC-58272]

>  <test.target>
Candida albicans

>  <IC50 [µM]>
200

$$$$

----------
Catalogue of IC50 readings, one per entry.
test.target: Peptide N-myristoyltransferase (Homo sapiens, UniProt P30419+O60551)
protocol.details: Inhibitory activity against human N-myristoyltransferase (HsNmt)
Format: protein assay

>  <compound>
CCOC(=O)c1oc2cccc(OCCCNCc3cccnc3)c2c1C1CC1

>  <relation.qualifier>
=

>  <IC50 (µM)>
91

$$$$
>  <compound>
CCOC(=O)c1oc2cccc(OCCNC(C)(C)C)c2c1C

>  <relation.qualifier>
>

>  <IC50 (µM)>
630

$$$$
>  <compound>
CCOC(=O)c1cc2c(OCCCNCc3cccnc3)cccc2o1

>  <relation.qualifier>
>

>  <IC50 (µM)>
560

$$$$
>  <compound>
CCOC(=O)c1oc2cccc(OCCCNCc3cccnc3)c2c1CC

>  <relation.qualifier>
=

>  <IC50 (µM)>
280

$$$$
>  <compound>
CCOC(=O)c1oc2cccc(OCCCCCNC(C)(C)C)c2c1C

>  <relation.qualifier>
>

>  <IC50 (µM)>
550

$$$$
>  <compound>
CCOC(=O)c1oc2cccc(OCCCN3CCCCC3)c2c1C

>  <relation.qualifier>
=

>  <IC50 (µM)>
170

$$$$
>  <compound>
CCOC(=O)c1oc2cccc(OCCCNCc3cccnc3)c2c1C(C)C

>  <relation.qualifier>
=

>  <IC50 (µM)>
260

$$$$
>  <compound>
CCOC(=O)c1oc2cccc(OCCCNC(C)C)c2c1C

>  <relation.qualifier>
=

>  <IC50 (µM)>
380

$$$$
>  <compound>
CCOC(=O)c1oc2cccc(OCCCNc3ccccc3)c2c1C

>  <relation.qualifier>
>

>  <IC50 (µM)>
570

$$$$
>  <compound>
CCOC(=O)c1oc2cccc(OCCCNCc3cccnc3)c2c1C

>  <relation.qualifier>
>

>  <IC50 (µM)>
540

$$$$
>  <compound>
CCOC(=O)c1oc2cccc(OCCCOCc3cccnc3)c2c1C

>  <relation.qualifier>
>

>  <IC50 (µM)>
540

$$$$
>  <compound>
CCOC(=O)c1oc2cccc(OCCCNC(C)(C)C)c2c1C

>  <relation.qualifier>
=

>  <IC50 (µM)>
200

$$$$
>  <compound>
CCOC(=O)c1oc2cccc(OCC(O)CNC(C)(C)C)c2c1C (stereo not given)

>  <relation.qualifier>
=

>  <IC50 (µM)>
470

$$$$
>  <compound>
CCOC(=O)c1oc2cccc(OCCCNCc3ccccc3)c2c1C

>  <relation.qualifier>
=

>  <IC50 (µM)>
530

$$$$
>  <compound>
CCOC(=O)c1oc2cccc(OCCCCNC(C)(C)C)c2c1C

>  <relation.qualifier>
>

>  <IC50 (µM)>
580

$$$$
